- systemName: human glucocorticoid receptor (Homo sapiens, UniProt P04150)
- Construct: purified human recombinant full-length glucocorticoid receptor (2 nM); purchased Invitrogen Part #2893
- Sequence (P04150 whole entry): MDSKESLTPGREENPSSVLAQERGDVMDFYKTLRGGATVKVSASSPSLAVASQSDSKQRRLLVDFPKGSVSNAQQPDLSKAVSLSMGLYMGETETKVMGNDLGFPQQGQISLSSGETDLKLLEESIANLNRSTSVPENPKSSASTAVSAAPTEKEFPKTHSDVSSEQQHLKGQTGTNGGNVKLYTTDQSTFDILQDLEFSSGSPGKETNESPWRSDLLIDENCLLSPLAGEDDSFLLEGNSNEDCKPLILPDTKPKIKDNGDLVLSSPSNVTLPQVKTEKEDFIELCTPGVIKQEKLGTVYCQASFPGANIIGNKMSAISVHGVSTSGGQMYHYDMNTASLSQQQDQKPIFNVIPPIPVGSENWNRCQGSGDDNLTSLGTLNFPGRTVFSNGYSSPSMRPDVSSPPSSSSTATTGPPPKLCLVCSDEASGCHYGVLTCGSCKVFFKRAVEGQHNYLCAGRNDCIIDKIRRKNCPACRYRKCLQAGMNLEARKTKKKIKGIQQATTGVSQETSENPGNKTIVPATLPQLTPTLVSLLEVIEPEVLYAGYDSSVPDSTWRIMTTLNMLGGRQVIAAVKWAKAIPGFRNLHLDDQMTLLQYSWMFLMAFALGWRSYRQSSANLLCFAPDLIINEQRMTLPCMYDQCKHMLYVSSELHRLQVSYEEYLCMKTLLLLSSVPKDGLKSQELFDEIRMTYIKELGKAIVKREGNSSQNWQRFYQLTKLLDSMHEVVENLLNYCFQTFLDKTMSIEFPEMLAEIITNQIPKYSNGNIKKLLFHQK
- experimentalDetails: Glucocorticoid Receptor Binding Assay (I), fluorescence polarization competitor kit
- measurementContext: purified human recombinant full-length GR, Fluormone GS Red
resultType: Ki (nM)

- C[C@H](C(=O)Nc1nncs1)[C@@H](c1cccc(F)c1)c1ccc(-c2ccc(C(=O)N(C)C)cc2)s1 [Example 125]: 5.71
- CC(C(=O)Nc1nncs1)C(c1ccccc1)c1ccc(Br)s1 (mixture of isomers) [Example 132]: 3.2
- CC(C)(C(=O)Nc1nncs1)[C@H](c1cccc(F)c1)c1ccc(-c2ccc(C(=O)N3CCOCC3)c(Cl)c2)s1 [Example 61]: 101
- C[C@H](C(=O)Nc1nncs1)[C@H](c1cccc(F)c1)c1ccc(-c2ccc(C(=O)N(C)C)cc2)s1 [Example 128]: 277
- CC(C)(C(=O)Nc1nncs1)C(c1ccccc1)c1ccc(Br)s1 (single isomer, unassigned) [Example 85]: 2.74
